# Test system: 786-0
# EXPERIMENT_DESCRIPTION: NCI tumour cell line growth inhibition, 48 h
Activity calls are given as the source filed them. No stated cut-off is given here; in the data, active = GI50 up to about 1.1 µM and inactive = higher. *1 amine or outer side, *2 acyl side, *3 side chain or, on linkers, in order; H or OH if unused. Where a SMILES comes first, the peptide text is derived from it. Bridges are numbered along the chain shown (N, C = ends). Roman numbers before positions name the chains, in order. [ ]: non-standard residue; d: D form. Actinocin(1to9) = Cc1c2oc3c(C)ccc(C(=O)[*:2])c3nc-2c(C(=O)[*:1])c(N)c1=O; NMeV = CN[CH](C(=O)O)C(C)C; Sar = CNCC(=O)O
Classes used: active, inactive

| MOLECULE | CATEGORY_LABEL |
| --- | --- |
| Nc1ccc2c3c1cccc3c(=O)n1c3ccc(Cc4ccc5c(c4)nc4c6ccc(N)c7cccc(c(=O)n54)c76)cc3nc21 | inactive |
| CC(=O)OC1(C)C(=O)OC/C2=C/CN(C)CCC(OC(=O)C(O)(C(C)Cl)CC1C)C2=O.c1ccccc1 (stereo unspecified) | inactive |
| Cc1ccc(OCC2OC(n3cnc4nc(N)nc(Cl)c43)CC2Oc2ccc(C)cc2)cc1 (stereo unspecified) | inactive |
| CCC(C)C1NC(=O)C(NC(=O)c2c3nc4c(C(=O)NC5C(=O)NC(C(C)C)C(=O)N6CCCC6C(=O)N(C)CC(=O)N(C)C(C(C)C)C(=O)OC5C)ccc(C)c4oc-3c(C)c(=O)c2N)C(C)OC(=O)C(C(C)C)N(C)C(=O)CN(C)C(=O)C2CCCN2C1=O (stereo unspecified) (I: TIP[Sar][NMeV] / II: TVP[Sar][NMeV]; ester I:1-I:C, II:1-II:C; linker I:N-II:N via Actinocin(1to9); configuration not given here) | active |
| N=C(CC/C(N)=N/O)NO | inactive |
| N#Cc1c2ccc([N+](=O)[O-])cc2c(=O)n2c1sc1ccccc12 | inactive |

---

# System: NCI-H23
# EXPERIMENT_DESCRIPTION: NCI tumour cell line growth inhibition, 48 h
Activity calls are given as the source filed them. No stated cut-off is given here; in the data, active = GI50 up to about 1.1 µM and inactive = higher.
Entries and their measured GI50 follow.
OBSERVED_PROPERTY: GI50

| COMPOUND | MEASURED_VALUE |
| --- | --- |
| N#CC(C(=O)CCCC(=O)Nc1ccc(Cl)cc1Cl)c1ccc(Cl)cc1 (stereo not given) | > 100 µM (inactive) |
| CCOC(=O)CCC(NC(=O)Cc1ccc(Nc2nc3ccccc3nc2-c2ccccc2)cc1)C(=O)OCC (stereo not given) | 20.7 µM (inactive) |
| CCOC(=O)c1ccc(/N=c2/[nH]c3ccccc3s/c2=N/c2ccc(C(=O)OCC)cc2)cc1 | > 100 µM (inactive) |
| O=C(NC(OCc1ccccc1)(C(F)(F)F)C(F)(F)F)OCc1ccccc1 | 12.9 µM (inactive) |
| O=C(O)c1cccc(S(=O)(=O)NN2C(=O)CSC2c2c(O)ccc3ccccc23)c1 (stereo not given) | 21.7 µM (inactive) |
| CC(=O)OCC1OC(n2c(C#N)cc(=O)[nH]c2=O)CC1OC(C)=O (stereo not given) | > 100 µM (inactive) |
| CCOC(NC(=O)CC)(C(F)(F)F)C(F)(F)F | > 100 µM (inactive) |
| O=C(O)C12C3C4(C(=O)O)C1C1(C(=O)O)C2C3(C(=O)O)C41 (stereo not given) | > 100 µM (inactive) |
| COC1C(OC(=O)c2ccc(C)[nH]2)C(O)C(Oc2ccc3c(O)c(NC(=O)c4ccc(O)c(CC=C(C)C)c4)c(=O)oc3c2Cl)OC1(C)C (stereo not given) | 20.1 µM (inactive) |
| Cc1cn(CC2=NC3CCCCC3N2)c(=O)[nH]c1=O (stereo not given) | > 100 µM (inactive) |
| CNC1(c2cc3ccccc3s2)CCCCC1 | 57.4 µM (inactive) |
| Cc1[nH]c2ccccc2c1-c1cc(-c2cc(-c3c(C)[nH]c4ccccc34)on2)no1 | > 100 µM (inactive) |
| CC1(C)C[C@H]2C3=CC[C@@H]4[C@@]5(C)CC[C@H](O)C(C)(C)[C@@H]5CC[C@@]4(C)[C@]3(C)C[C@@H](O)[C@@]23C[C@@H]1OC3=O | > 100 µM (inactive) |
| O=C1c2ccccc2C(=O)c2c1ccc1c2N=C(c2ccc(Br)cc2)CC(c2cccc3ccccc23)N1 (stereo not given) | > 100 µM (inactive) |
| CCOC(=O)NC | > 100 µM (inactive) |
| O=C(NN=C1CCCCC1)NN=C1CCCCC1 | > 100 µM (inactive) |
| O=c1c2cc(Cl)cc(Cl)c2oc2nc3n(c(=O)c12)CCCS3 | > 100 µM (inactive) |
| CC(=O)NC(CC(C)C)C(=O)NC(CC(C)C)C(=O)NC(C=O)CCCNC(=N)N (stereo not given) | > 100 µM (inactive) |
| CCCc1ccc(NCc2cc(OC)c(OC)c(OC)c2)cc1 | 22 µM (inactive) |
| Cc1ccc(C(C)(C)C[P+](C)(c2ccccc2)c2ccccc2)cc1 | 11.7 µM (inactive) |
| O=C1OC(c2ccccc2)=N/C1=C\c1ccc([N+](=O)[O-])cc1 | 24.5 µM (inactive) |
| CN(C)Cc1cc(C(C)(C)C)cc(CNC2CCCCC2)c1O | 69.7 µM (inactive) |
| OCC(O)COc1ccc(F)cc1 (stereo not given) | > 100 µM (inactive) |
| COC(=O)C(=O)C(C(=O)C(=O)Nc1cc(C)ccc1C)c1nc2ccccc2nc1O (stereo not given) | > 100 µM (inactive) |
| COc1ccc2c(c1)CC[C@@H]1[C@@H]2CC[C@]2(C)[C@@H](O)/C(=C/c3ccncc3)C[C@@H]12 | 12.8 µM (inactive) |
| CC(C)CCCC(C)[C@H]1CCC2[C@@H]3CCC4Nc5nocc5C[C@]4(C)C3CC[C@@]21C (stereo not given in full) | 14.6 µM (inactive) |
| CC(=O)Nc1ccc2[nH]c(C(=O)N3CC(CCl)c4c3cc([N+](=O)[O-])c3ccccc43)cc2c1 (stereo not given) | 8.57 µM (inactive) |
| Cc1cc(N(CCC#N)CCC#N)ccc1/C=C/C(=O)Nc1ccccc1Cl | > 100 µM (inactive) |
| CN(C)CCNC(=O)c1ccc(NC(=O)c2nc([N+](=O)[O-])cn2C)cc1 | > 100 µM (inactive) |
| COc1ccc(N2C(=O)[C@@H](N=[N+]=[N-])[C@@H]2[C@H]2COC(C)(C)O2)cc1 | > 100 µM (inactive) |
| Cc1ccc(OCC2OC(n3cnc4nc(N)nc(Cl)c43)CC2Oc2ccc(C)cc2)cc1 (stereo not given) | 15.6 µM (inactive) |
| CCOC(=O)c1c(N/C(S)=N/c2ccccc2)sc2c1CCOC2 | 26.4 µM (inactive) |
| CN(C)CCCC1c2ccccc2Oc2ccc(C(F)(F)F)cc21 (stereo not given) | 16 µM (inactive) |
| CO/C(=N\N=C(/C)C(F)(F)F)c1ccncc1 | > 100 µM (inactive) |
| CC1OC2=N[C@@H]1C(=O)N[C@@H](C(C)C)C1=N[C@H](C(=O)N[C@@H](C(C)C)C3=N[C@H](C(=O)N[C@@H](C(C)C)C4=N[C@H](C(=O)N[C@H]2C(C)C)C(C)O4)C(C)O3)C(C)O1 (stereo not given in full) | > 10 µM (inactive) |
| COc1nc2ccc(COc3ccc(C(=O)NC(CCC(=O)O)C(=O)O)cc3)cc2nc1OC (stereo not given) | > 10 µM (inactive) |
| NC(=O)C1CCCN1C(=O)C(Cc1c[nH]cn1)NC(=O)C1CCCC1 (stereo not given) | > 100 µM (inactive) |
| c1cc(CSP234N5CCN2CCN3CCN4CC5)ccc1CSP123N4CCN1CCN2CCN3CC4 | > 100 µM (inactive) |
| C/C=C/C(=O)Oc1cccc2cccnc12 | 4.91 µM (inactive) |
| OCCc1cnco1 | > 100 µM (inactive) |
